assay: qHTS for inhibitors of binding or entry into cells for Marburg Virus; conditions: Marburg virus pseudotyped entry inhibition, cell reporter; series mostly up to 37.8 µM
About 5,400 (1.8%) of roughly 300,000 compounds were called active. Not shown: some 28% with an inconclusive outcome. Calls follow the shape of the full dose curve; tested in HEK293 cells. The list comes from a sample in which actives are over-represented; it also holds close analogues and randomly drawn compounds.
Give one outcome, nothing more. List: YES for active, NO for inactive

Below, 2 molecules whose answers are already recorded.
1. Cc1ccc(-c2nn(-c3ccc(F)cc3)cc2C(=O)NCC(c2cccs2)N2CCOCC2)cc1 (centres undefined) | NO
2. O=C(/C=C/c1ccc2c(c1)OCO2)NCc1ccc(F)cc1 | NO

Q: What did this assay record as the result for COc1ccc(C(=O)Nc2ccnn2C2CCN(Cc3ccncc3)CC2)cc1 ?
A: NO

Q: What did this assay record as the result for CCc1noc(C)c1C(=O)N1CCCC(N2CCN(c3ccc(F)cc3)CC2)C1 (centres undefined) ?
A: NO

Q: What did this assay record as the result for CCOC(=O)c1c(-c2cccc(C)c2)csc1NC(=O)c1c(-c2ccccc2)noc1C ?
A: YES

Q: What did this assay record as the result for Nn1c(SCC(=O)Nc2ccc3c(c2)CCC3)nnc1C1CC1 ?
A: NO

Q: What did this assay record as the result for CC1=NN(C(=O)CCc2ccccc2O)C(O)(C(F)(F)F)C1 (centres undefined) ?
A: NO

Q: What did this assay record as the result for CC(C)Nc1nnc(SC(C)C(=O)N(C)C2CCCCC2)s1 (centres undefined) ?
A: NO

Q: What did this assay record as the result for COc1ccccc1C1C2=C(COC2=O)Nc2cc3c(cc21)OCO3 (centres undefined) ?
A: NO

---

assay: qHTS for inhibitors of binding or entry into cells for Marburg Virus; settings: Marburg virus pseudotyped entry inhibition, cell reporter; series mostly up to 37.8 µM
The campaign covered roughly 300,000 compounds. About 5,400 (1.8%) were called active. About 28% were inconclusive and are not listed. Calls follow the shape of the full dose curve; tested in HEK293 cells. Only a selection was taken, and actives are over-represented in it overall.
Give one outcome, nothing more. List: yes = active, no = inactive

Below, 5 compounds whose answers are already recorded.
1) COc1ccc(NS(=O)(=O)c2ccc(Oc3c(C#N)cccc3C#N)cc2)cc1 | yes
2) CCCCCN(C(=O)CCC(=O)OCC(=O)NC1CCC(C)CC1)c1c(N)n(CCCC)c(=O)[nH]c1=O (configuration not stated) | no
3) C=CCN1CCN(C(=O)CCCc2ccccc2)CC1 | yes
4) CC(=O)NC1(c2ccc(F)cc2)CCN(C(=O)c2c(F)cccc2F)CC1 | no
5) Cc1cccc(NC(=O)C2CCN(C(=O)NC3CCCCC3)CC2)c1 | no

Q: What did this assay record as the result for CC(=O)c1ccc(N2CCN(C(=O)CCc3ccccc3)CC2)cc1 ?
A: no

Q: What did this assay record as the result for O=C(NC1CCCC1)C(c1ccco1)N(C(=O)c1ccco1)c1ccc(F)cc1 (configuration not stated) ?
A: no

Q: What did this assay record as the result for COc1ccc(C(=O)OCC(=O)N2CC(=O)Nc3ccccc32)cc1Br ?
A: no

Q: What did this assay record as the result for CCC(=C/c1sc2ccc3ccccc3c2[n+]1C)/C=C1\Sc2ccc3ccccc3c2N1C ?
A: yes

Q: What did this assay record as the result for CC(=O)OCC(=O)C1(O)CCC2C3CC(C)C4=CC(=O)CCC4(C)C3C(O)CC21C (configuration not stated) ?
A: no

Q: What did this assay record as the result for CC1(C)Cc2c(cnn2-c2cccc(F)c2)C(NC(=O)c2cc[n+]([O-])cc2)C1 (configuration not stated) ?
A: no

Q: What did this assay record as the result for CC[C@@H]1Cc2cc(O)ccc2C2=C1c1ccc(O)cc1C[C@H]2CC ?
A: yes
